Tested on: LNCaP
Test: Anticancer activity against human LNCAP cells assessed as cell viability measured after 72 hrs by MTT assay (reference value: 100 +/- 5.0 %)
Assay type: functional
Set-up: concentration or dose not given beside the values
quantity measured: Activity (%)

> print(dat)
                                   molecule  unit.string  test.result
1  C[C@H]1[C@H](Sc2ccc([N+](=O)[O-])cc2)O[C@@H]2O[C@@]3(C)CC[C@H]4[C@H](C)CC[C@@H]1[C@@]24OO3            %           46
2  COC(=O)Cc1ccc(SC2O[C@@H]3O[C@@]4(C)CC[C@H]5[C@H](C)CC[C@@H]([C@H]2C)[C@@]35OO4)cc1 (some centres not stated)            %           31
3  COC(=O)CS[C@H]1O[C@@H]2O[C@@]3(C)CC[C@H]4[C@H](C)CC[C@@H]([C@H]1C)[C@@]24OO3            %           71
4  CCCCCCS[C@H]1O[C@@H]2O[C@@]3(C)CC[C@H]4[C@H](C)CC[C@@H]([C@H]1C)[C@@]24OO3            %           46
5  COC(=O)Cc1ccc(S[C@@H]2O[C@@H]3O[C@@]4(C)CC[C@H]5[C@H](C)CC[C@@H]([C@H]2C)[C@@]35OO4)cc1            %           38
6  C[C@H]1[C@H](Sc2ccc(C(=O)O)cc2)O[C@@H]2O[C@@]3(C)CC[C@H]4[C@H](C)CC[C@@H]1[C@@]24OO3            %           47
7  C[C@H]1[C@@H](Sc2cccc(C(=O)O)c2)O[C@@H]2O[C@@]3(C)CC[C@H]4[C@H](C)CC[C@@H]1[C@@]24OO3            %           43

----------
System: PC-3
Experiment: Anticancer activity against human PC3 cells assessed as reduction in cell viability measured after 72 hrs by MTT assay
Assay type: functional, cell-based
Conditions: PC-3, 72 h
pIC50: −log10 of the molar value.
pIC50 reference
quantity measured: pIC50

> print(dat)
                      smiles.representation  test.result
1  COC(=O)Cc1ccc(S[C@@H]2O[C@@H]3O[C@@]4(C)CC[C@H]5[C@H](C)CC[C@@H]([C@H]2C)[C@@]35OO4)cc1         5.21
2  CCCCCCS[C@H]1O[C@@H]2O[C@@]3(C)CC[C@H]4[C@H](C)CC[C@@H]([C@H]1C)[C@@]24OO3         5.24

----------
Test system: A549
Experiment: Anticancer activity against human A549 cells assessed as cell viability measured after 72 hrs by MTT assay (reference value: 100 +/- 9.6 %)
Format: functional
Parameters: concentration or dose not given beside the values
Activity by entry:
quantity measured: Activity (%)

> print(dat)
                      smiles.representation  test.result
1  COC(=O)CS[C@@H]1O[C@@H]2O[C@@]3(C)CC[C@H]4[C@H](C)CC[C@@H]([C@H]1C)[C@@]24OO3           91
2  C[C@H]1[C@H](Sc2nnnn2C)O[C@@H]2O[C@@]3(C)CC[C@H]4[C@H](C)CC[C@@H]1[C@@]24OO3           89
3  C[C@H]1[C@@H](Sc2cccc(C(=O)O)c2)O[C@@H]2O[C@@]3(C)CC[C@H]4[C@H](C)CC[C@@H]1[C@@]24OO3           89

----------
Tested on: MDA-MB-231
Assay: Anticancer activity against human MDA-MB-231 cells assessed as cell viability measured after 72 hrs by MTT assay (reference value: 100 +/- 20.0 %)
Type: functional
Set-up: concentration or dose not given beside the values
Activity values for the molecules below.
quantity measured: Activity (%)

> print(dat)
                      smiles.representation  unit.string  test.result
1  C[C@H]1[C@@H](Sc2ccc(Cl)cc2)O[C@@H]2O[C@@]3(C)CC[C@H]4[C@H](C)CC[C@@H]1[C@@]24OO3            %           70
2  C[C@H]1[C@@H](Sc2cccc(C(=O)O)c2)O[C@@H]2O[C@@]3(C)CC[C@H]4[C@H](C)CC[C@@H]1[C@@]24OO3            %           97
3  C[C@H]1[C@@H](Sc2nnnn2C)O[C@@H]2O[C@@]3(C)CC[C@H]4[C@H](C)CC[C@@H]1[C@@]24OO3            %           86
4  C[C@H]1[C@H](Sc2nnnn2C)O[C@@H]2O[C@@]3(C)CC[C@H]4[C@H](C)CC[C@@H]1[C@@]24OO3            %           75
5  COC(=O)CS[C@@H]1O[C@@H]2O[C@@]3(C)CC[C@H]4[C@H](C)CC[C@@H]([C@H]1C)[C@@]24OO3            %           98
